PROTOCOL_TEXT: chemical genetic growth profiling, strain panel (AID 1159580);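 further: tested at 20 µM; growth read once vehicle control cultures reached saturation at 30 °C; 1 = growth at the plate median or of vehicle wells; lower values mean less growth of the strain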
ASSAY_CONTEXT: S. cerevisiae deletion strains, growth OD, locus YDR392W, strain spt3, hits give low values
Screen size: about 5,500 compounds; about 2,000 (36%) were called active. Inconclusive results (about 18%) are left out. The list shows a part of the results. Where a SMILES comes first, the peptide text is derived from it. Side-chain parts run from the residue outwards. [ ]: non-standard residue; d: D form. The star is where a group is joined. X1 = CCC(C)C(N)C1=NC(C(=O)*)CS1; Orn = NCCC[CH](N)C(=O)O
Just a reminder that ties go to -1: only normalized growth strictly below 0.9 counts as 1.

{"COMPOUND": "CCCc1nc2c(C)cc(-c3nc4ccccc4n3C)cc2n1Cc1ccc(-c2ccccc2C(=O)O)cc1", "ASSIGNED_CATEGORY": 1}
{"COMPOUND": "Cc1onc(-c2ccccc2Cl)c1C(=O)N[C@@H]1C(=O)N2[C@@H]1SC(C)(C)[C@@H]2C(=O)O", "ASSIGNED_CATEGORY": -1}

Challenge: Does this compound meet the criterion normalized growth < 0.9? CCC(C)C(N)C1=NC(C(=O)NC(CC(C)C)C(=O)NC(CCC(=O)O)C(=O)NC(C(=O)NCCCCC2NC(=O)C(CC(N)=O)NC(=O)C(CC(=O)O)NC(=O)C(Cc3cnc[nH]3)NC(=O)C(Cc3ccccc3)NC(=O)C(C(C)CC)NC(=O)C(CCCN)NC2=O)C(C)CC)CS1 (stereo not drawn) (cyclo(DNK([Ile-Glu-Leu-X1])[Orn]IFH); configuration not given here)
Response given: -1
